EXPERIMENT: calcein-AM signal in unstimulated myeloma cells – cell-based, calcein-AM fluorescence, 48 h, PK04 Diversity Set, profiling panel (AID 1166);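 note: cells grown under basal conditions without added stimulus; test concentration not given here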
COND: RPMI8226 myeloma viability, higher = more signal
MEASURED_ATTRIBUTE: z-score

| COMPOUND | z-score |
| --- | --- |
| CCCCCCc1nc(-c2ccc(-c3ccc(Cl)c(Cl)c3)o2)c(C)c2c1[Si](C(C)C)(C(C)C)OC2 | -4.25 |
| CC1CC/C=C\[C@H]2OC34C=CCN(Cc5ccccc5)C(=O)[C@H]3N(C(C)CO)C(=O)[C@@H]4C2C(=O)O1 (some centres not stated) | -0.182 |

Item under review: "COC(=O)[C@@]1(Cc2ccccc2)[C@H]2c3cc(C(=O)N4CCCC4)n(Cc4c(CO)[nH]cc(C)c4=O)c3C[C@H]2CN1C(=O)c1ccccc1" . Reported z-score?
-2.04

z-score lookup needed for "CO[C@H]1O[C@H](CO)[C@@H](OC(=O)Nc2cccc(F)c2)[C@H](OC(=O)Nc2ccccc2)[C@H]1OC(=O)Nc1ccccc1" , thanks.
-4.26

###

The following compounds are shown together with reported composite z-score values.
EXPERIMENTAL_TARGET: Dickkopf-related protein 1 (Homo sapiens) (UniProt O94907)
Sequence (O94907 whole entry, looked up): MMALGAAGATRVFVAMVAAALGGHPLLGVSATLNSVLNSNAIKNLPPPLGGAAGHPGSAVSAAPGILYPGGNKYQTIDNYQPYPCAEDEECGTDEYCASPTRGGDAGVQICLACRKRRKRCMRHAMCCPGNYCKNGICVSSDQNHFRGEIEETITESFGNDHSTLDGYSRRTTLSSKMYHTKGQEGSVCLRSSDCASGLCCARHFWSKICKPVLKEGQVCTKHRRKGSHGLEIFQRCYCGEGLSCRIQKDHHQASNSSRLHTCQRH
EXPERIMENT: small molecules binding DKK1 protein – biochemical, small-molecule microarray, 635 nm fluorescence scan, primary screen (AID 1106);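 note: score merges emission near 667 nm with signal to noise over three replicate slides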
COND: higher = more signal
Lab note: record just the number, no unit beside it.

Example cases with answers are listed next.
| COMPOUND | composite z-score |
| --- | --- |
| C=CCN1Cc2ccccc2[C@@H]2OC(c3ccc(OCCCO)cc3)=N[C@]2(CCS(=O)(=O)c2ccccc2)C1=O | 1.41 |
| OCCCC1=CC(C2CC2)N(Cc2cccc(OC(F)(F)F)c2)CC1 (centres undefined) | 0.161 |
| COc1ccc([Si](C)(C)[C@@H]2[C@@H](CC(=O)N3CCC[C@H]3CO)O[C@]3(C(=O)N(Cc4cccc(I)c4)c4ccccc43)[C@H]2C)cc1 | 1.92 |

# next compound below
Quick one: composite z-score for "COCCCNC(=O)[C@@]1(CCS(=O)(=O)c2ccccc2)N=C(c2ccc(OCCCO)cc2)O[C@H]1c1ccccc1N=[N+]=[N-]" ?
0.267

###

Tested on: PRMT1 (protein arginine N-methyltransferase 1)
EXPERIMENT: small molecules binding arginine methyltransferase PRMT1 – biochemical, small-molecule microarray, 635 nm fluorescence, primary screen (AID 1088);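 note: binding of Prmt1 protein to compounds spotted on small-molecule microarray slides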
COND: higher = more signal
Entries and their composite z-score
The reply should be a number, written without any unit.

| MOLECULE | composite z-score |
| --- | --- |
| COCCOC(=O)N1C(=O)[C@@]2(c3ccccc31)[C@H](C(=O)N1CCc3cc(OC)c(OC)cc3C1)[C@H]1C(=O)O[C@H](c3ccccc3)[C@H](c3ccccc3)N1[C@@H]2c1ccc(O)cc1 | 1.51 |
| CCCCN1CC=CC23O[C@@H]4/C=C\CCCOC(=O)C4[C@H]2C(=O)N(CCCCCO)[C@@H]3C1=O (stereo partly specified) | -1.13 |
| OB1C=CCC(CCc2ccccc2)O1 (stereo unspecified) | -1.12 |
| COC(=O)[C@@]1(Cc2ccc(F)cc2)[C@H]2c3cc(C(=O)N(C)C)n(Cc4ccc(C)o4)c3C[C@H]2CN1C(=O)c1ccccc1 | 0.323 |
| C=C(CCCC)/C(=C/C[C@@H](OC(C)=O)c1ccccc1OCCO)c1cc(C(=O)OC)ccc1OC | 0.252 |
| CC(C)C(=C=CC[C@H](O)c1ccc(CO)o1)CCO | 1.52 |
| CCOC(=O)C1=CC[C@H]2C(=O)N(c3ccccc3)C(=O)[C@@H]12 | 1.48 |
| COC(=O)[C@@]1(Cc2ccc(OC)cc2)[C@H]2c3cc(C(=O)N4CCCC4)n(CCSCCO)c3C[C@H]2CN1C(=O)c1ccccc1 | 0.416 |

Which composite z-score is listed for "CC(C)(C)OC(=O)CC[C@@]1(C(=O)N2CCCCC2)N=C(c2ccc(OCCCO)cc2)O[C@@H]1c1ccccc1" ?
1.54

Consider the molecule "O=C1[C@H]2C=C(I)[C@H](C[C@@H]2OCCCCO)[C@@]12CO2" and give its measured composite z-score.
0.9

Requested field: composite z-score. Item: COc1ccc(C(O)C2C=CC3C(=O)N(C)C(=O)C3N2N(c2ccccc2)c2ccccc2)c2ccccc12 (stereo unspecified)
0.474

Please look up its composite z-score: "C#CCOc1ccc(C[C@@H](C(=O)OC)N(CC#C)[C@@H](/C=C/C2CC2)[C@H](O)Cc2ccccc2)cc1"
-0.828

Query: composite z-score; subject: "CC(C)OC(=O)C=C1C[C@@H](c2cccc(Cl)c2)O[C@@H](c2cccc(Cl)c2)O1"
-0.341

What composite z-score value was documented for this molecule, CC(C)N1CC=CC23O[C@@H]4C=CCOC(=O)[C@@H]4[C@H]2C(=O)N(CCCCCO)[C@@H]3C1=O (stereo partly specified) ?
0.637

Given the molecule "O=C1O[C@H](c2ccccc2)[C@H](c2ccccc2)N2[C@H]1[C@@H](C(=O)NC[C@H](O)c1ccccc1)[C@]1(C(=O)Nc3ccccc31)[C@H]2c1ccc(O)cc1" , what is its reported composite z-score?
1.39

# input molecule: "O=C1O[C@@H](c2ccccc2)[C@@H](c2ccccc2)N2[C@@H](c3ccccc3OCCO)[C@]3(C(=O)Nc4ccc(C#CC5(O)CCCCCC5)cc43)[C@@H](C(=O)N3CCN(c4ncccn4)CC3)[C@H]12" ; wanted: its composite z-score
1.55

###

EXPERIMENT: viability profiling in RPMI8226 myeloma cells – cell-based, resazurin fluorescence, basal, 24 h, PK04 Diversity Set, profiling panel (AID 1180);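 note: RPMI8826 multiple myeloma cell line at 5000 cells per well; test concentration not given here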
COND: higher = more signal
Binary call on z-score: 1 (yes) from -0.5 upward, 0 (no) beneath that.

| COMPOUND | CLASS_LABEL |
| --- | --- |
| O=C1O[C@@H](c2ccccc2)[C@@H](c2ccccc2)N2[C@@H](c3ccc(OCCO)cc3)[C@]3(C(=O)Nc4ccc(C#CC5=CCCCC5)cc43)[C@@H](C(=O)N3CCCCCCC3)[C@H]12 | 1 (yes) |
| COC(=O)[C@@]1(Cc2ccccc2)[C@H]2c3cc(C(=O)N(C)C)n(Cc4ccc(OC)c(OC)c4)c3C[C@H]2CN1C(=O)c1ccccc1 | 0 (no) |
| COCCCNC(=O)[C@@]1(Cc2ccccc2CN=[N+]=[N-])N=C(c2ccc(OCCCO)cc2)O[C@H]1c1ccccc1CN=[N+]=[N-] | 0 (no) |

State whether the measured z-score reaches -0.5, counting equality as reaching it, for "CO[C@H]1O[C@H](CO)[C@@H](OC(=O)Nc2ccc(Oc3ccccc3)cc2)[C@H](OC(=O)Nc2ccc3c(c2)OCO3)[C@@H]1OC(=O)Nc1ccc2c(c1)OCO2"
0 (no)

Has "COC(=O)[C@]1(Cc2ccccc2)N=C(c2ccc(OCCCO)cc2)O[C@@H]1c1ccccc1N=[N+]=[N-]" a recorded z-score greater than or equal to -0.5?
0 (no)

Decide: z-score of COc1ccc(C(O)C2C=CC3C(=O)N(C)C(=O)C3N2N(c2ccccc2)c2ccccc2)c2ccccc12 (stereo unspecified) >= -0.5?
0 (no)

Is it the case that "O[C@@H](Cc1ccccc1)[C@@H](/C=C/C1CC1)NCc1cccc(Cl)c1" has z-score reaching or exceeding -0.5?
0 (no)

Does CCOc1ccc(N2C(=O)CSC2c2cccc([N+](=O)[O-])c2)cc1 (stereo unspecified) have a reported z-score of at least -0.5?
1 (yes)

Threshold query (z-score >= -0.5) on "CC(=O)NCCCC[C@@H]1NC(=O)[C@H]2C[C@@H](C(=O)NCCCCCNC(=O)CS)[C@@H](c3ccc(O)cc3)N2C1=O"
1 (yes)

Quick check: does "CCCCC(=C=CC[C@@H](O)c1cccc(OCCO)c1)C[C@@H](O)c1ccccn1" have z-score greater than or equal to -0.5?
1 (yes)

Hi, just wondering whether "C=C(CCCC)/C(=C/C[C@H](OC(C)=O)c1ccccc1OCCO)c1cnc2ccccc2c1" shows z-score of -0.5 or higher.
0 (no)

Could you verify whether the entry "COC(=O)c1c(CC[C@@H](CO)NC(=O)N[C@@H](Cc2ccccc2)Cn2cc(-c3ccccn3)nn2)oc(C(=O)N2CCOCC2)c1C(=O)OC" shows z-score of no less than -0.5?
1 (yes)

Entry O=C1C2C=CC(C(O)c3ccc4c(c3)OCO4)N(Nc3ccc([N+](=O)[O-])cc3)C2C(=O)N1c1ccccc1 (stereo unspecified) : is its z-score no less than -0.5?
0 (no)

###

Catalogue of z-score values
EXPERIMENT: blockers of DNA damage checkpoint Chk1 activation – imaging, HeLa, hydroxyurea, phospho-Chk1 nuclear intensity, primary screen (AID 1187); note: test concentration not given here
COND: hydroxyurea-induced phospho-Chk1 immunofluorescence imaging, higher = more signal
Keep it simple and answer with nothing but the number.

| COMPOUND | z-score |
| --- | --- |
| CCOC(=O)C1=CC[C@@H](c2ccc(C(F)(F)F)cc2)N(S(=O)(=O)c2ccc(C)cc2)[C@H]1c1ccccc1 | -0.516 |

State the recorded z-score for this entry: "CCOC(=O)C1=CC[C@@H](c2ccccc2)N(S(=O)(=O)c2ccc(C)cc2)[C@H]1c1ccc(CC)cc1"
-0.606

// lookup z-score for CN1CCC(CCCO)=CC1c1cccs1 (centres undefined)
0.692

Can you look up the measured z-score of CC=CC(O)C1C=CC2C(=O)N(C)C(=O)C2N1N(c1ccccc1)c1ccccc1 (centres undefined) for me?
0.365

For the compound "Cc1ccc([C@H]2C(C(=O)O)=CCN2S(=O)(=O)c2ccc(C)cc2)cc1" , what z-score is on record?
-0.222
